Known Euclidean distance of a selection of compounds
# System: FB
# assayMethodText: Euclidean distance of Cell Painting phenotypic profile (signed KS, 77 features) to DMSO centroid (dimensionless distance); 5 or 10 uM (library dependent); higher = stronger phenotypic change vs DMSO (phenoactivity)
# reportedConditions: 48 h
quantityKind: Euclidean distance

• C[C@]12CC[C@@H]3c4ccc(O)cc4C[C@@H](CCCCCCCCC[S+]([O-])CCCC(F)(F)C(F)(F)F)[C@H]3[C@@H]1CC[C@@H]2O (some centres not stated) = 1.18
• CC1=C(/C=C/C(C)=C/C=C/C(C)=C/C(=O)Nc2ccc(O)cc2)C(C)(C)CCC1 [Fenretinide] = 2.58
• CCOC(=O)O[C@]1(C(=O)OCCl)CC[C@H]2[C@@H]3CCC4=CC(=O)C=C[C@]4(C)[C@H]3[C@@H](O)C[C@@]21C [Loteprednol etabonate] = 1.66
• O=C(O)/C=C/c1ccc(O)cc1 = 0.846
• CCC[C@H](NC(=O)[C@@H]1[C@H]2CCC[C@H]2CN1C(=O)[C@@H](NC(=O)[C@@H](NC(=O)c1cnccn1)C1CCCCC1)C(C)(C)C)C(=O)C(=O)NC1CC1 = 0.968
• COc1ccnc(C[S+]([O-])c2nc3cc(-n4cccc4)ccc3[nH]2)c1C (configuration not stated) [Ilaprazole sodium] = 0.764
• O=C(N[C@H](CO)[C@H](O)c1ccc([N+](=O)[O-])cc1)C(Cl)Cl = 0.994

* * *

# System: OVCAR4
# assayMethodText: Euclidean distance of Cell Painting phenotypic profile (signed KS, 77 features) to DMSO centroid (dimensionless distance); 5 or 10 uM (library dependent); higher = stronger phenotypic change vs DMSO (phenoactivity)
# reportedConditions: 48 h
Known Euclidean distance of a selection of compounds
quantityKind: Euclidean distance

* Nc1ccc(S(=O)(=O)c2ccc(N)cc2)cc1 | 1.8
* Cc1cc(S(=O)(=O)O)c2c(C)ccc(C(C)C)cc1-2 [Sodium gualenate] | 1.13
* O=C1Nc2ccc(Cl)cc2[C@@](C#CC2CC2)(C(F)(F)F)O1 | 1.1
* CC(=O)[C@H]1CC[C@H]2[C@@H]3C[C@H](C)C4=CC(=O)CC[C@]4(C)[C@H]3[C@@H](O)C[C@]12C | 1.81
* C[C@H]1O[C@@H](O[C@H]2CC[C@@]3(C)[C@@H](CC[C@]4(C)[C@@H]3C=C[C@]35OC[C@@]6(CCC(C)(C)C[C@H]63)[C@@H](O)C[C@]54C)[C@]2(C)CO)[C@H](O)[C@@H](O[C@@H]2O[C@H](CO)[C@@H](O)[C@H](O)[C@H]2O)[C@H]1O | 2.14
* CCN1CCN(C(=O)N[C@@H](C(=O)N[C@@H]2C(=O)N3C(C(=O)O)=C(CSc4nnnn4C)CS[C@H]23)c2ccc(O)cc2)C(=O)C1=O | 1.24

* * *

# System: OVCAR4
# assayMethodText: Euclidean distance of Cell Painting phenotypic profile (signed KS, 77 features) to DMSO centroid (dimensionless distance); 5 or 10 uM (library dependent); higher = stronger phenotypic change vs DMSO (phenoactivity)
# reportedConditions: 48 h
Counter-ions that a name gives are not always drawn.
Rule: 1 (yes) for Euclidean distance not less than 1, 0 (no) for anything less.

- OC(CCN1CCCCC1)(c1ccccc1)C1CC2C=CC1C2 (centres undefined) [Biperiden HCl]: 0 (no)
- CNC(=O)c1ccc2cc([C@@]3(O)CCn4cncc43)ccc2c1: 0 (no)
- Cc1ccccc1N1CCN(CCc2nnc3n2CCCC3)CC1 [Dapiprazole Hydrochloride]: 1 (yes)
- C=C(C)[C@@H]1CC[C@]2(C(=O)O)CC[C@]3(C)[C@H](CC[C@@H]4[C@@]5(C)CC[C@H](O)C(C)(C)[C@@H]5CC[C@]43C)[C@@H]12: 0 (no)
- CSCCNc1nc(SCCC(F)(F)F)nc2c1ncn2[C@@H]1O[C@H](COP(=O)(O)OP(=O)(O)C(Cl)(Cl)P(=O)(O)O)[C@@H](O)[C@H]1O [Cangrelor Tetrasodium]: 0 (no)
- CO[C@@H]1[C@@H](OC(N)=O)[C@@H](O)[C@H](Oc2ccc3c(O)c(NC(=O)c4ccc(O)c(CC=C(C)C)c4)c(=O)oc3c2C)OC1(C)C [Novobiocin Sodium]: 1 (yes)
- NC(N)=Nc1nc(CSCC/C(N)=N/S(N)(=O)=O)cs1: 1 (yes)
- NC12CC3CC(CC(C3)C1)C2 [Amantadine HCl]: 0 (no)
- Clc1ccccc1CN1CCc2sccc2C1 [Ticlopidine HCl]: 1 (yes)
- NC(=O)c1cnc2[nH]ccc2c1N[C@@H]1[C@@H]2CC3C[C@H]1C[C@@](O)(C3)C2: 1 (yes)
- C=CC(=O)Nc1cccc(Oc2nc(Nc3ccc(N4CCN(C)CC4)cc3)ncc2Cl)c1: 1 (yes)
- C/C(=C\C(=O)OCCCCCCCCC(=O)O)C[C@@H]1OC[C@H](C[C@@H]2O[C@H]2[C@@H](C)[C@H](C)O)[C@@H](O)[C@H]1O [Mupirocin calcium]: 1 (yes)
- CCc1cccc2c3c([nH]c12)C(CC)(CC(=O)O)OCC3 (centres undefined): 1 (yes)
- Cc1ncc([N+](=O)[O-])n1CCOC(=O)c1ccccc1 [Metronidazole Benzoate]: 0 (no)
- O=C(OC[C@H]1O[C@@H](OC(=O)c2cc(O)c(O)c(OC(=O)c3cc(O)c(O)c(O)c3)c2)[C@H](OC(=O)c2cc(O)c(O)c(OC(=O)c3cc(O)c(O)c(O)c3)c2)[C@@H](OC(=O)c2cc(O)c(O)c(OC(=O)c3cc(O)c(O)c(O)c3)c2)[C@@H]1OC(=O)c1cc(O)c(O)c(OC(=O)c2cc(O)c(O)c(O)c2)c1)c1cc(O)c(O)c(OC(=O)c2cc(O)c(O)c(O)c2)c1: 1 (yes)
- NC[C@H]1CC[C@H](C(=O)O)CC1: 1 (yes)
- CC/C(=C(\c1ccccc1)c1ccc(OCCN(C)C)cc1)c1ccccc1 [Tamoxifen Citrate]: 1 (yes)
- COc1cc(NS(C)(=O)=O)ccc1Nc1c2ccccc2nc2ccccc12 [Amsacrine hydrochloride]: 1 (yes)
- O=C(O)/C=C/c1ccc(Cn2ccnc2)cc1 [Ozagrel]: 1 (yes)
- Cc1oc(=O)oc1CN1CCN(c2cc3c(cc2F)c(=O)c(C(=O)O)c2n3C(C)S2)CC1 (centres undefined): 0 (no)
- Cn1c(Nc2ccc(C(F)(F)F)cc2)nc2cc(Oc3ccnc(-c4ncc(C(F)(F)F)[nH]4)c3)ccc21: 1 (yes)
- COC(=O)N/N=C/c1c[n+]([O-])c2ccccc2[n+]1[O-]: 1 (yes)
